Where do the numbers come from? From paper PMC8472512.

I'd appreciate it if you could supply half-life at 10 μM values for the items below.
# Experiment Summary: Chemical stability in physiologically-relevant solutions
# Format: physicochemical
# Experimental Setup: pH 6.5 buffer (0.1 M potassium phosphate), 37 °C

Entry O=C(O)CNC(=O)Oc1cc2oc(-c3ccccc3)cc(=O)c2c(O)c1O — recorded half-life at 10 μM = > 4 h

Entry O=C(N[C@@H](Cc1ccccc1)C(=O)O)Oc1cc2oc(-c3ccccc3)cc(=O)c2c(O)c1O — recorded half-life at 10 μM = > 4 h

Entry CC[C@@H](C)[C@H](NC(=O)Oc1cc2oc(-c3ccccc3)cc(=O)c2c(O)c1O)C(=O)O — recorded half-life at 10 μM = > 4 h

====

# Experiment Summary: Stability in mouse plasma
# Format: in vitro ADME
# Experimental Setup: mouse, plasma
Measured Quantity: remaining at 1 h, 1 μM

Entry O=c1cc(-c2ccccc2)oc2cc(O)c(O)c(O)c12 [Baicalein] — recorded remaining at 1 h, 1 μM = > 85%

====

# Experiment Summary: Mouse pharmacokinetics
# Type: in vivo, male ICR mice
# Experimental Setup: male, ICR, mouse, iv; plasma analyte after single i.v. dose of baicalein 10 mg/kg, mice
Measured Quantity: Tmax (min)
// note: answer is a bare numeric in min

Entry O=c1cc(-c2ccccc2)oc2cc(O)c(O)c(O)c12 [Baicalein] — recorded Tmax = 6

Entry O=C(O)[C@H]1O[C@@H](Oc2cc3oc(-c4ccccc4)cc(=O)c3c(O)c2O)[C@H](O)[C@@H](O)[C@@H]1O [Baicalin] — recorded Tmax = 6

====

# Experiment Summary: Kinetic solubility in phosphate buffer (pH 7.4)
# Type: physicochemical
# Experimental Setup: aqueous buffer, kinetic from dmso stock; shake-flask, 0.1 M phosphate buffer (pH 7.4), triplicate
I'd appreciate it if you could supply solubility kinetic at 90 min values for the items below.
// note: answer is a bare numeric in µM

Entry C[C@@H](O)[C@H](NC(=O)Oc1cc2oc(-c3ccccc3)cc(=O)c2c(O)c1O)C(=O)O [Compound 4] — recorded solubility kinetic at 90 min = 347

Entry CC(C)C[C@H](NC(=O)Oc1cc2oc(-c3ccccc3)cc(=O)c2c(O)c1O)C(=O)O [Compound 1] — recorded solubility kinetic at 90 min = 443

Entry CC[C@@H](C)[C@H](NC(=O)Oc1cc2oc(-c3ccccc3)cc(=O)c2c(O)c1O)C(=O)O [Compound 3] — recorded solubility kinetic at 90 min = 447

Entry CC(C)[C@H](NC(=O)Oc1cc2oc(-c3ccccc3)cc(=O)c2c(O)c1O)C(=O)O [Compound 2] — recorded solubility kinetic at 90 min = 479

Entry C[C@H](NC(=O)Oc1cc2oc(-c3ccccc3)cc(=O)c2c(O)c1O)C(=O)O [Compound 6] — recorded solubility kinetic at 90 min = 400

Entry O=C(O)CNC(=O)Oc1cc2oc(-c3ccccc3)cc(=O)c2c(O)c1O [Compound 7] — recorded solubility kinetic at 90 min = 357

Entry O=C(N[C@@H](Cc1ccccc1)C(=O)O)Oc1cc2oc(-c3ccccc3)cc(=O)c2c(O)c1O [Compound 5] — recorded solubility kinetic at 90 min = 375

====

# Experiment Summary: Chemical stability in physiologically-relevant solutions
# Assay type: physicochemical
# Experimental Setup: 0.1 M potassium phosphate buffer; pH 6.5 buffer (0.1 M potassium phosphate), 37 °C
# Experimental: Stock solutions of the test compounds (baicalein, compounds 1–7) prepared in MeOH at 10 mM were diluted in 0.1 N HCl and 0.1 M potassium phosphate buffer (pH 6.5 and 7.4) in triplicate to a final concentration of 10 μM. The mixtures were then incubated at 37 °C in a shaking water bath. Samples taken at 0, 1, 2, 3 and 4 h were analyzed by Thermo UltiMate 3000 series HPLC system. […]
Measured Quantity: half-life at 10 μM

Entry O=c1cc(-c2ccccc2)oc2cc(O)c(O)c(O)c12 — recorded half-life at 10 μM = > 4 h
